compounds and their reported inhibition
System: diaphorase (Clostridium kluyveri)
procedure.summary: compounds blocking diaphorase resazurin reduction – biochemical, uHTS, resorufin fluorescence, counter-screen for diaphorase-coupled primary assays, primary screen (AID 1217);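 further: plate controls were DMSO with full reaction for no effect and wells lacking NADH for full effect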
test.settings: diaphorase resazurin-to-resorufin fluorescence, NADH, 16 min; at 20 µM; stronger effect = higher value; bacterial (C. kluyveri) enzyme, not human
Out of some 190,000 compounds screened, about 1,300 (0.68%) were called active. The entries come from a sample that favours actives as a whole.
Give the number; % is assumed, so skip it.

Field: example entries. Status: answers known.
compound: CCOC(=O)C1(CC2CCCCO2)CCN(Cc2nc(-c3cccs3)oc2C)CC1 (stereo not drawn)
endpoint.unit: %
inhibition: 56.2
--
compound: COc1ccc(-c2[nH]ncc2/C=N/NC(=O)c2cc(Br)ccc2O)c(OC)c1
endpoint.unit: %
inhibition: 8.8
--
compound: C(=C\c1ccccc1)/CSc1nnc(-c2cccnc2)n1Cc1ccco1
endpoint.unit: %
inhibition: 53.4

`COc1cc(N/C=C2\CC(=O)NC(C)=C2C#N)cc(OC)c1OC` has a reported inhibition of 51.1

`Cn1cnnc1SCc1nnc(-c2ccccc2Br)o1` has a reported inhibition of 4.8

`C#Cc1ccc([C@@H]2C=C(C(=O)O)O[C@H](OCCCCO)C2)cc1` has a reported inhibition of 15

`O=C(Oc1cccc(NC2=NS(=O)(=O)c3ccccc32)c1)c1ccncc1` has a reported inhibition of 50.9

`CCOc1ccc(-c2n[nH]c(=S)n2/N=C/c2cc3c(cc2[N+](=O)[O-])OCO3)cc1` has a reported inhibition of 41.6

`O=C(OCc1cc(Cl)ccc1OC(F)F)c1cccnc1` has a reported inhibition of 10.6

CCc1ccc(NC2Nc3cc(C)nn3S2)cc1 (stereo not drawn) has a reported inhibition of 8.9

----------
System: diaphorase (Clostridium kluyveri)
procedure.summary: compounds blocking diaphorase resazurin reduction – biochemical, uHTS, resorufin fluorescence, counter-screen for diaphorase-coupled primary assays, primary screen (AID 1217);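 further: plate controls were DMSO with full reaction for no effect and wells lacking NADH for full effect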
test.settings: diaphorase resazurin-to-resorufin fluorescence, NADH, 16 min; at 20 µM; stronger effect = higher value; bacterial (C. kluyveri) enzyme, not human
About 1,300 (0.68%) of roughly 190,000 compounds were called active. The full list was thinned out, with actives kept by preference.
compounds and their reported inhibition
Give the number; % is assumed, so skip it.

compound: O=C(COc1ccc(Cl)cc1)NCc1nnc(SCC(=O)NCC2CCCO2)o1 (configuration not stated)
tested.on: diaphorase (Clostridium kluyveri)
inhibition, %: 3.2

`CCc1ccc(NC(=O)Cn2nc(C)c([N+](=O)[O-])c2C)cc1` has a reported inhibition of 12.1

`O=C(Cc1ccc(-n2c(=O)[nH]c3ccccc3c2=O)cc1)N1CCN(c2cccc(Cl)c2)CC1` has a reported inhibition of 19.4

CCN(C(=O)COC(=O)c1ccc(COc2ccc3c(C)cc(=O)oc3c2)cc1)C1CCS(=O)(=O)C1 (configuration not stated) has a reported inhibition of 0.7

`O=[N+]([O-])c1c(NCCO)cc(Sc2nc3ccccc3s2)c2nonc12` has a reported inhibition of 58

`Cc1nc2sc(C(=O)c3ccccc3)c(N)c2c2c1CCCC2` has a reported inhibition of 28.7

CCc1ccc(C2C(C#N)=C(N)Oc3n[nH]c(CC(=O)OC)c32)cc1 (configuration not stated) has a reported inhibition of 4

`CCOC(=O)N1CCN(C(=O)Cc2ccc(-n3c(=S)[nH]c4ccccc4c3=O)cc2)CC1` has a reported inhibition of 51.3

`Oc1ccccc1/C=N/n1c(-c2cccs2)n[nH]c1=S` has a reported inhibition of 35.3

`O=C(O)c1cccc(S(=O)(=O)Nc2ccc(O)cc2Sc2nc3ccccc3s2)c1` has a reported inhibition of 7.5

CCCc1[nH]nc2c1C(c1c(C)nn(-c3ccccc3)c1Cl)C(C#N)=C(N)O2 (configuration not stated) has a reported inhibition of 26.8

`CC(=O)Nc1ccc(OCC(=O)NCc2ccc(C)cc2)cc1` has a reported inhibition of 11.1

`Brc1cc(/C=N/n2cnnc2)oc1Br` has a reported inhibition of -5.6

`Cc1cccc(N2CCC(NCc3c(C(=O)N4CCCCC4)nc4c(C)cccn34)CC2)c1` has a reported inhibition of -5.4

`COC(=O)c1ccc(OCC(=O)NC(C)(C)C)cc1` has a reported inhibition of -15.5

`COc1cc(CNCCN(C)C)ccc1OCc1c(F)cccc1Cl` has a reported inhibition of 3.9
